Kindly state pKi for each of the entries shown.
Target sequence: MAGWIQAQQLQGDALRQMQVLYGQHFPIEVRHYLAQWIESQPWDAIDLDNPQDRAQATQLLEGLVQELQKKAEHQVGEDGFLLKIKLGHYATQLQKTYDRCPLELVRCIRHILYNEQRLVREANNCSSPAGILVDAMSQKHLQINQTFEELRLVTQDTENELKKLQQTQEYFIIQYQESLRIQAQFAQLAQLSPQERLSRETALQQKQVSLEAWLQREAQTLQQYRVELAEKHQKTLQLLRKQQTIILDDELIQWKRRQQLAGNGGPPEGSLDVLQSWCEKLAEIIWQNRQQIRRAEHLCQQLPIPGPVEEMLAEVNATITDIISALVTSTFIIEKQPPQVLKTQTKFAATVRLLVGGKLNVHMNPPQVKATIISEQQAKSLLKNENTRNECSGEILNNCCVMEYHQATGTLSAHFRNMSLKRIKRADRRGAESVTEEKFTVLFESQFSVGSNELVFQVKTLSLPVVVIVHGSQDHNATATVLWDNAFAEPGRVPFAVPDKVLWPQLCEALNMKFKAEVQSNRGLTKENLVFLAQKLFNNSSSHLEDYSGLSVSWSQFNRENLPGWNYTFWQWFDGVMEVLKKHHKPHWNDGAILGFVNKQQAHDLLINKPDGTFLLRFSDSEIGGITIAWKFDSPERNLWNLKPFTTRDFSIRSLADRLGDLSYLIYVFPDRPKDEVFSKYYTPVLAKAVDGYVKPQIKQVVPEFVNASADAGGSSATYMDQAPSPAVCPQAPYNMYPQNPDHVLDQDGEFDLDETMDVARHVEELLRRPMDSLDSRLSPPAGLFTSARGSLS
pKi: −log10 of the molar value.

Problem: pKi lookup needed for `CC(C)(C)[C@H](NC(=O)c1cc2cc(C(F)(F)P(=O)(O)O)ccc2s1)C(=O)N1CCC[C@H]1C(=O)N1CCCC12CCCCC2` , thanks.
Solution: < 5.00

Problem: pKi lookup needed for CC(C)(C)[C@H](NC(=O)c1cc2cc(C(F)(F)P(=O)(O)O)ccc2s1)C(=O)N1CCC[C@H]1C(=O)N1CCSC(c2ccccc2)C1 (stereo partly shown) , thanks.
Solution: 6.00 to 7.00

Problem: pKi lookup needed for `CC(C)(C)[C@H](NC(=O)c1cc2cc(C(F)(F)P(=O)(O)O)ccc2s1)C(=O)N1CCC[C@H]1C(=O)Nc1ncc(-c2ccccc2F)s1` , thanks.
Solution: 5.00 to 6.00

Problem: pKi lookup needed for `CN(C)C(=O)CCN(C(=O)[C@@H]1CCCN1C(=O)[C@@H](NC(=O)c1cc2cc(C(F)(F)P(=O)(O)O)ccc2s1)C(C)(C)C)c1ccc(-c2nccs2)cc1` , thanks.
Solution: 5.00 to 6.00
